# System: 429239-143-T-J1-PDC complex spheroid viability
# method notes: Anticancer human tumor 429239-143-T-J1-PDC patient-derived small cell lung carcinoma cell line growth inhibition [POLQ]
# applied conditions: second compound 3.16 µM; first compound 0.1 µM; stronger effect = lower value
property label: viability, T/C (%)
Numbers only; they are read as %.

Example results:
INSERT INTO results (compound, property_label, readout_number) VALUES
  ('C=CCn1c(=O)c2cnc(Nc3ccc(N4CCN(C)CC4)cc3)nc2n1-c1cccc(C(C)(C)O)n1 + COC1C(OC(N)=O)C(O)C(Oc2ccc3c(O)c(NC(=O)c4ccc(O)c(CC=C(C)C)c4)c(=O)oc3c2C)OC1(C)C', 'viability, T/C', 96.3),
  ('C=CC(=O)N1CCN(c2nc(=O)n(-c3c(C)ccnc3C(C)C)c3nc(-c4c(O)cccc4F)c(F)cc23)C(C)C1 (stereo not drawn) + Cc1cccc(N(C)C(=O)C2C(O)CCN2c2nc(C)cc(C(F)(F)F)c2C#N)c1', 'viability, T/C', 88);

# next compound below
For the compound O=C(c1cc(Cc2n[nH]c(=O)c3ccccc23)ccc1F)N1CCN(C(=O)C2CC2)CC1 + Cc1cccc(N(C)C(=O)C2C(O)CCN2c2nc(C)cc(C(F)(F)F)c2C#N)c1 , what viability, T/C is on record? 78.7

---

Listed here: items and their measured IC50.
# Test system: 429239-143-T-J1-PDC complex spheroid viability
# method notes: Anticancer human tumor 429239-143-T-J1-PDC cell line growth inhibition [POLQ];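 also: luminescence signal used as surrogate measure of viable cells; spheroids exposed to compounds for seven days before readout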
# applied conditions: curve of first compound; second compound 0.0316 µM
Numbers only; they are read as nM.

Example results:
INSERT INTO results (molecule, target_or_test_system, unit_name, readout_number) VALUES
  ('COc1cccc(OCCCN)c1-c1cc(Nc2cnc(C#N)cn2)n[nH]1 + COC1C(OC(N)=O)C(O)C(Oc2ccc3c(O)c(NC(=O)c4ccc(O)c(CC=C(C)C)c4)c(=O)oc3c2C)OC1(C)C', '429239-143-T-J1-PDC complex spheroid viability', 'nM', 82.1),
  ('O=C(c1cc(Cc2n[nH]c(=O)c3ccccc23)ccc1F)N1CCN(C(=O)C2CC2)CC1 + COC1C(OC(N)=O)C(O)C(Oc2ccc3c(O)c(NC(=O)c4ccc(O)c(CC=C(C)C)c4)c(=O)oc3c2C)OC1(C)C', '429239-143-T-J1-PDC complex spheroid viability', 'nM', 1940),
  ('CCc1cc2c(N3CCc4c(cc(Cn5ccnc5)cc4-c4cn(C)nc4C(F)(F)F)C3=O)cc(C)nc2c(OC)n1 + COC1C(OC(N)=O)C(O)C(Oc2ccc3c(O)c(NC(=O)c4ccc(O)c(CC=C(C)C)c4)c(=O)oc3c2C)OC1(C)C', '429239-143-T-J1-PDC complex spheroid viability', 'nM', 1470),
  ('O=C(c1cc(Cc2n[nH]c(=O)c3ccccc23)ccc1F)N1CCN(C(=O)C2CC2)CC1 + Nc1ccc(C#CCN(C(=O)Cc2ncc(C(F)(F)F)cc2C(F)(F)F)c2ccc(F)cc2)nn1', '429239-143-T-J1-PDC complex spheroid viability', 'nM', 4180);

For the molecule COc1cccc(OCCCN)c1-c1cc(Nc2cnc(C#N)cn2)n[nH]1 + Cc1cccc(N(C)C(=O)C2C(O)CCN2c2nc(C)cc(C(F)(F)F)c2C#N)c1 , what IC50 is on record? 377

---

# Test system: 429239-143-T-J1-PDC complex spheroid viability
# method notes: Anticancer human tumor 429239-143-T-J1-PDC cell line growth inhibition [POLQ];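 also: luminescence signal used as surrogate measure of viable cells; spheroids exposed to compounds for seven days before readout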;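 as to viability, T/C: 100% = DMSO vehicle control viability as luminescence relative to vehicle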
# applied conditions: second compound 0.316 µM; first compound 0.0316 µM; stronger effect = lower value
I'd appreciate it if you marked entries TRUE when viability, T/C is lower than 90% and FALSE when it is not.

Some solved cases for reference:
INSERT INTO measurements (compound, discrete_label) VALUES
  ('COc1cccc(OCCCN)c1-c1cc(Nc2cnc(C#N)cn2)n[nH]1 + Nc1ccc(C#CCN(C(=O)Cc2ncc(C(F)(F)F)cc2C(F)(F)F)c2ccc(F)cc2)nn1', 'FALSE'),
  ('COc1cc2cc(C(=O)CCC(=O)O)sc2cc1OC + COC1C(OC(N)=O)C(O)C(Oc2ccc3c(O)c(NC(=O)c4ccc(O)c(CC=C(C)C)c4)c(=O)oc3c2C)OC1(C)C', 'FALSE'),
  ('O=c1[nH]cc(F)c(=O)[nH]1 + COC1C(OC(N)=O)C(O)C(Oc2ccc3c(O)c(NC(=O)c4ccc(O)c(CC=C(C)C)c4)c(=O)oc3c2C)OC1(C)C', 'FALSE');

Problem: For the compound CC1COCCN1c1cc(C2(O)CC3CCC(C2)O3)c2cnn(-c3ccn[nH]3)c2n1 (stereo unspecified) + Cc1cccc(N(C)C(=O)C2C(O)CCN2c2nc(C)cc(C(F)(F)F)c2C#N)c1 , is viability, T/C under 90%? TRUE

Problem: For the compound C=CC(=O)N1CCN(c2nc(=O)n(-c3c(C)ccnc3C(C)C)c3nc(-c4c(O)cccc4F)c(F)cc23)C(C)C1 (stereo unspecified) + COC1C(OC(N)=O)C(O)C(Oc2ccc3c(O)c(NC(=O)c4ccc(O)c(CC=C(C)C)c4)c(=O)oc3c2C)OC1(C)C , is viability, T/C under 90%? FALSE

Problem: For the compound CCc1cc2c(N3CCc4c(cc(Cn5ccnc5)cc4-c4cn(C)nc4C(F)(F)F)C3=O)cc(C)nc2c(OC)n1 + COC1C(OC(N)=O)C(O)C(Oc2ccc3c(O)c(NC(=O)c4ccc(O)c(CC=C(C)C)c4)c(=O)oc3c2C)OC1(C)C , is viability, T/C under 90%? FALSE

Problem: For the compound CCc1cc2c(N3CCc4c(cc(Cn5ccnc5)cc4-c4cn(C)nc4C(F)(F)F)C3=O)cc(C)nc2c(OC)n1 + Cc1cccc(N(C)C(=O)C2C(O)CCN2c2nc(C)cc(C(F)(F)F)c2C#N)c1 , is viability, T/C under 90%? FALSE

---

# Tested on: 429239-143-T-J1-PDC complex spheroid viability
# method notes: Anticancer human tumor 429239-143-T-J1-PDC cell line growth inhibition [POLQ]; active = viability on the fitted dose curve at most 10% of control; inactive = the rest;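 also: luminescence signal used as surrogate measure of viable cells; spheroids exposed to compounds for seven days before readout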
# applied conditions: second compound 0.316 µM; first compound 0.1 µM
Output constraint: value belongs to true (1) = active, false (0) = inactive

INSERT INTO measurements (compound, discrete_label) VALUES
  ('C=CCn1c(=O)c2cnc(Nc3ccc(N4CCN(C)CC4)cc3)nc2n1-c1cccc(C(C)(C)O)n1 + COC1C(OC(N)=O)C(O)C(Oc2ccc3c(O)c(NC(=O)c4ccc(O)c(CC=C(C)C)c4)c(=O)oc3c2C)OC1(C)C', 'false (0)'),
  ('C=CCn1c(=O)c2cnc(Nc3ccc(N4CCN(C)CC4)cc3)nc2n1-c1cccc(C(C)(C)O)n1 + Cc1cccc(N(C)C(=O)C2C(O)CCN2c2nc(C)cc(C(F)(F)F)c2C#N)c1', 'false (0)'),
  ('O=C(c1cc(Cc2n[nH]c(=O)c3ccccc23)ccc1F)N1CCN(C(=O)C2CC2)CC1 + Cc1cccc(N(C)C(=O)C2C(O)CCN2c2nc(C)cc(C(F)(F)F)c2C#N)c1', 'false (0)'),
  ('CCc1cc2c(N3CCc4c(cc(Cn5ccnc5)cc4-c4cn(C)nc4C(F)(F)F)C3=O)cc(C)nc2c(OC)n1 + Cc1cccc(N(C)C(=O)C2C(O)CCN2c2nc(C)cc(C(F)(F)F)c2C#N)c1', 'false (0)');

Which outcome was assigned to CCc1c2c(nc3ccc(O)cc13)-c1cc3c(c(=O)n1C2)COC(=O)[C@]3(O)CC + Cc1cccc(N(C)C(=O)C2C(O)CCN2c2nc(C)cc(C(F)(F)F)c2C#N)c1 in this test? false (0)

Which outcome was assigned to O=c1[nH]cc(F)c(=O)[nH]1 + COC1C(OC(N)=O)C(O)C(Oc2ccc3c(O)c(NC(=O)c4ccc(O)c(CC=C(C)C)c4)c(=O)oc3c2C)OC1(C)C in this test? false (0)

Which outcome was assigned to C=CC(=O)N1CCN(c2nc(=O)n(-c3c(C)ccnc3C(C)C)c3nc(-c4c(O)cccc4F)c(F)cc23)C(C)C1 (stereo not given) + Nc1ccc(C#CCN(C(=O)Cc2ncc(C(F)(F)F)cc2C(F)(F)F)c2ccc(F)cc2)nn1 in this test? false (0)

Which outcome was assigned to CCc1cc2c(N3CCc4c(cc(Cn5ccnc5)cc4-c4cn(C)nc4C(F)(F)F)C3=O)ccnc2c(OC)n1 + Nc1ccc(C#CCN(C(=O)Cc2ncc(C(F)(F)F)cc2C(F)(F)F)c2ccc(F)cc2)nn1 in this test? false (0)

Which outcome was assigned to COc1cccc(OCCCN)c1-c1cc(Nc2cnc(C#N)cn2)n[nH]1 + COC1C(OC(N)=O)C(O)C(Oc2ccc3c(O)c(NC(=O)c4ccc(O)c(CC=C(C)C)c4)c(=O)oc3c2C)OC1(C)C in this test? false (0)

Which outcome was assigned to CC[C@@]1(O)C(=O)OCc2c1cc1n(c2=O)Cc2cc3c(CN(C)C)c(O)ccc3nc2-1 + Nc1ccc(C#CCN(C(=O)Cc2ncc(C(F)(F)F)cc2C(F)(F)F)c2ccc(F)cc2)nn1 in this test? true (1)

Which outcome was assigned to O=c1[nH]cc(F)c(=O)[nH]1 + Cc1cccc(N(C)C(=O)C2C(O)CCN2c2nc(C)cc(C(F)(F)F)c2C#N)c1 in this test? false (0)

Which outcome was assigned to CCc1c2c(nc3ccc(O)cc13)-c1cc3c(c(=O)n1C2)COC(=O)[C@]3(O)CC + Nc1ccc(C#CCN(C(=O)Cc2ncc(C(F)(F)F)cc2C(F)(F)F)c2ccc(F)cc2)nn1 in this test? true (1)
